- targetSystem: MMP-2 (Homo sapiens)
- Construct: purchased Sino Biological 10082-HNAH
- Sequence (P08253 110-660): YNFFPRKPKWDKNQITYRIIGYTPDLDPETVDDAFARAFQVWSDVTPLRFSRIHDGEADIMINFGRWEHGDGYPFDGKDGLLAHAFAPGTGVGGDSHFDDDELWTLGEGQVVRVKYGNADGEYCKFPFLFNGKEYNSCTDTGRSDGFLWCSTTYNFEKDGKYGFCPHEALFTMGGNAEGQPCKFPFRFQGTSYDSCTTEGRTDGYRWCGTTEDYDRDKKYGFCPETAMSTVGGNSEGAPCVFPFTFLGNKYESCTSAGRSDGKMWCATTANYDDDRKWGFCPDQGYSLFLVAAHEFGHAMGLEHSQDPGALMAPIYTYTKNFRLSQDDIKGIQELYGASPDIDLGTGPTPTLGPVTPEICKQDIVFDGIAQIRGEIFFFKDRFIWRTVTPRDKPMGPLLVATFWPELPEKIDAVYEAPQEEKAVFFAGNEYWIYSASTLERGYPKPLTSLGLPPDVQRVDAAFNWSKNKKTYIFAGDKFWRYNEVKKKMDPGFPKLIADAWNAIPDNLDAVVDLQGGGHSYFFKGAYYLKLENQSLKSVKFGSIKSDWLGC
- procedureDetails: MMP-2 inhibition assay (fluorogenic peptide substrate)
- Type: biochemical
- recordedConditions: MMP-2; concentration 0.39 µM
- Protocol: The inhibition by the small molecule compounds against MMP-2/MMP-9 was measured using an assay probing the enzyme proteolytic activity on the substrate DNP-Pro-Leu-Gly-Met-Trp-Ser-Arg (Enzo Life Sciences, USA). All assays were performed in the assay buffer containing 50 mM Tris, 100 mM NaCl. […] The rate of hydrolysis was monitored by quantifying the emission at 360 nm (ex: 280 nm). The emission was measured with intervals of the 30 s for 30 min with Synergy H1 Plate Reader (Agilent, USA). […]
measure: remaining activity (%)
Write the number on its own, no unit after it.

### Prompt Look up remaining activity (%) for this compound: Cc1cc(=O)[nH]c(-n2nc(C)c(CCC(=O)NCCCCCCCCNC(=O)CCC(=O)NCc3c[nH]nn3)c2C)n1 [693+787 Linker 4]
### Response 91.65

### Prompt And what about the compound Cc1cc(=O)[nH]c(-n2nc(C)c(CCC(=O)NCCCCCCCCNC(=O)c3cncc(O)c3)c2C)n1 [693+828 Linker 4] ?
### Response 95.94

### Prompt And what about the compound Cc1cc(=O)[nH]c(-n2nc(C)c(CCC(=O)NCCSCC(=O)NCc3c[nH]nn3)c2C)n1 [693+787 Linker 24] ?
### Response 98.89

### Prompt And what about the compound Cc1cc(=O)[nH]c(-n2nc(C)c(CCC(=O)NCCNC(=O)CSCCNC(=O)c3cncc(O)c3)c2C)n1 [693+828 Linker 24] ?
### Response 98.13

### Prompt And what about the compound Cc1cc(=O)[nH]c(-n2nc(C)c(CCC(=O)NCCOCCOCCNC(=O)CCC(=O)NCc3c[nH]nn3)c2C)n1 [693+787 Linker 10] ?
### Response 87.35

### Prompt And what about the compound Cc1cc(=O)[nH]c(-n2nc(C)c(CCC(=O)NCc3c[nH]nn3)c2C)n1 [693+787 Linker 1] ?
### Response 101.13

### Prompt And what about the compound O=C(CNC(=O)NC12CC3CC(CC(C3)C1)C2)NCCCCCCCCNC(=O)c1cncc(O)c1 [66+828 Linker 4] ?
### Response 91.04

### Prompt And what about the compound O=C(C=CCCCCNC(=O)c1cncc(O)c1)CC(=O)NCC12CC3CC(CC(C3)C1)C2 [66+828 Linker 12] ?
### Response 95.82

### Prompt And what about the compound Cc1cc(=O)[nH]c(-n2nc(C)c(CCC(=O)NCCOCCOCCNC(=O)c3cncc(O)c3)c2C)n1 [693+828 Linker 10] ?
### Response 96.33

### Prompt And what about the compound O=C(CNC(=O)NC12CC3CC(CC(C3)C1)C2)NCc1c[nH]nn1 [66+787 Linker 1] ?
### Response 89.28

### Prompt And what about the compound O=C(CNC(=O)NC12CC3CC(CC(C3)C1)C2)NCCSCC(=O)NCc1c[nH]nn1 [66+787 Linker 24] ?
### Response 89.54

### Prompt And what about the compound O=C(CCCCCCC(=O)NCC12CC3CC(CC(C3)C1)C2)NCc1c[nH]nn1 [66+787 Linker 4] ?
### Response 84.29

Reference source for all entries: paper PMC10023787
